experimental_system: AKT1-E17K (Homo sapiens, UniProt P31749, E17K)
Sequence (P31749 whole entry E17K): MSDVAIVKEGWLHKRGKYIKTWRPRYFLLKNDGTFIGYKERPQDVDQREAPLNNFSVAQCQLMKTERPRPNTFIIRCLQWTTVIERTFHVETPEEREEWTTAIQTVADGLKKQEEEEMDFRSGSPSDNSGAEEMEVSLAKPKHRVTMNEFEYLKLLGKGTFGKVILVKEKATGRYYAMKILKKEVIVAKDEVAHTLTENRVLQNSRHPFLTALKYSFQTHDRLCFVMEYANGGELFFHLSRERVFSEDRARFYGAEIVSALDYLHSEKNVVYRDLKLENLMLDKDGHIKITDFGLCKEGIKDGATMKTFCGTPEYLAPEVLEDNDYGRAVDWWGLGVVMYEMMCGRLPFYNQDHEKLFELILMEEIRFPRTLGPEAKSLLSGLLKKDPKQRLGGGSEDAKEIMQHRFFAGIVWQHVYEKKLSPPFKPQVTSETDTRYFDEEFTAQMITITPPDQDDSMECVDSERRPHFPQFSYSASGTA
assay_method_text: NanoBRET Target Engagement (TE) Assay
Description: The NanoBRET™ Target Engagement (TE) Intracellular Kinase Assays are based on the NanoBRET™ System (Promega Corporation), an energy transfer technique designed to measure molecular proximity in living cells. […] All cells were evaluated for viability prior to transfection and optimization of the transfection was done prior to experimentation. […] Milli-BRET units (mBU) are calculated by multiplying the raw BRET values by 1000. […]
Please go through the items and note down their IC50.

stdin: So what does the record say about IC50 for Nc1ncccc1-c1nc2ccc(-c3ccccc3)nc2n1-c1ccc(CN2CC3CCC(C2)N3C(=O)c2ccc(C=O)c(O)c2)cc1 [Example 109] ?
stdout: > 600 nM

stdin: // query IC50 value for entry Nc1ncccc1-c1nc2ccc(-c3ccccc3)nc2n1-c1ccc(CN2CC3(CC(NC(=O)c4ccc(O)c(C=O)c4)C3)C2)cc1 [Example 69]
stdout: < 15 nM

stdin: Please look up its IC50: Nc1ncccc1-c1nc2ccc(-c3ccccc3)nc2n1-c1ccc(CN2CC3(CCN(C(=O)c4ccc(O)c(C=O)c4)C3)C2)cc1 [Example 92]
stdout: 15 to 60 nM

stdin: Given the entry Nc1ncccc1-c1nc2ccc(-c3ccccc3)nc2n1-c1ccc(CN2C[C@@H]3CN(C(=O)c4ccc(O)c(C=O)c4)C[C@@H]3C2)cc1 [Example 131] , report its measured IC50.
stdout: 60 to 600 nM

stdin: What value of measured IC50 is listed for Nc1ncccc1-c1nc2ccc(-c3ccccc3)nc2n1-c1ccc(CN2CCCC(NC(=O)c3ccc(C=O)c(O)c3)CC2)cc1 (stereo not drawn) [Example 116] ?
stdout: 60 to 600 nM

stdin: Fill in: IC50 of Nc1ncccc1-c1nc2ccc(-c3ccccc3)nc2n1-c1ccc(CN2CC3(C2)CN(C(=O)c2ccc(C=O)c(O)c2)C3)cc1 [Example 66] is ___
stdout: 60 to 600 nM

###

experimental_system: AKT1-E17K (Homo sapiens, UniProt P31749, E17K)
assay_method_text: NanoBRET Target Engagement (TE) Assay
experimental_endpoint: IC50

stdin: Tell me the measured IC50 of N#Cc1cccc(-c2ccc3nc(-c4cccnc4N)n(-c4ccc(CN5CCN(C(=O)c6ccc(C=O)c(O)c6)CC5)cc4)c3n2)c1 , please.
stdout: 60 to 600 nM

stdin: Request the reported IC50 associated with Nc1ncccc1-c1nc2ccc(-c3ccccc3)nc2n1-c1ccc(CN2CCN(C(=O)c3ccc(C=O)c(O)c3)CC2)cc1
stdout: 60 to 600 nM

stdin: Which IC50 is reported for this compound? Nc1ncccc1-c1nc2ccc(-c3ccccc3)nc2n1-c1ccc(CN2CC3CCC2CN3c2ccc(C=O)c(O)c2)cc1 (stereo not drawn)
stdout: 60 to 600 nM

stdin: Consider the compound shown here: C[C@H](NC(=O)c1ccc(O)c(C=O)c1)c1ccc(-n2c(-c3cccnc3N)nc3ccc(-c4ccccc4)nc32)cc1 What is its recorded IC50?
stdout: 15 to 60 nM

stdin: Form field: reported IC50 of Nc1ncccc1-c1nc2ccc(-c3ccc(Cl)cc3)nc2n1-c1ccc(CN2CCN(C(=O)c3ccc(C=O)c(O)c3)CC2)cc1
stdout: > 600 nM

stdin: Consider the compound Nc1ncccc1-c1nc2ccc(-c3ccccc3)nc2n1-c1ccc(CN2CCC3(CCN(C(=O)c4ccc(O)c(C=O)c4)CC3)C2)cc1 and give its measured IC50.
stdout: 60 to 600 nM

###

experimental_system: AKT1-E17K (Homo sapiens, UniProt P31749, E17K)
assay_method_text: NanoBRET Target Engagement (TE) Assay
Would you mind telling me the reported IC50 of each entry?

stdin: // lookup IC50 for Nc1ncccc1-c1nc2ccc(-c3ccccc3)nc2n1-c1ccc(CN2CCCCC(NC(=O)c3ccc(C=O)c(O)c3)C2)cc1 (centres unmarked)
stdout: > 600 nM

stdin: Fill in: IC50 of Nc1ncccc1-c1nc2ccc(-c3ccccc3)nc2n1-c1ccc(CN2CCCN(C(=O)c3ccc(C=O)c(O)c3)CC2)cc1 is ___
stdout: 15 to 60 nM

stdin: // query IC50 value for entry C=Cc1cc(C=O)c(O)cc1N1CCN(Cc2ccc(-n3c(-c4cccnc4N)nc4ccc(-c5ccccc5)nc43)cc2)CC1
stdout: 60 to 600 nM

stdin: // lookup IC50 for Nc1ncccc1-c1nc2ccc(-c3ccccc3)nc2n1-c1ccc(CN2CCC3(CC2)CN(c2ccc(C=O)c(O)c2)C3)cc1
stdout: 60 to 600 nM

stdin: Entry Nc1ncccc1-c1nc2ccc(N3CCOCC3)nc2n1-c1ccc(CN2CCC(NC(=O)c3ccc(O)c(C=O)c3)CC2)cc1 : reported IC50 = ?
stdout: 15 to 60 nM

stdin: Need IC50, item Nc1ncccc1-c1nc2ccc(-c3ccccc3)nc2n1-c1ccc(CN2CCC(Nc3ccc(C=O)c(O)c3)CC2)cc1
stdout: 60 to 600 nM

stdin: # input molecule: CN(C(=O)c1ccc(C=O)c(O)c1)C1CCN(Cc2ccc(-n3c(-c4cccnc4N)nc4ccc(-c5ccccc5)nc43)cc2)CC1 ; wanted: its IC50
stdout: 60 to 600 nM

stdin: GET /values?readout=IC50&item= Nc1ncccc1-c1nc2ccc(N3CCOCC3)nc2n1-c1ccc(CN2CCC(NC(=O)c3ccc(C=O)c(O)c3)CC2)cc1
stdout: 60 to 600 nM

stdin: Suppose we examine the molecule Nc1ncccc1-c1nc2ccc(-c3ccccc3)nc2n1-c1ccc(CN2CCN(C(=O)c3ccc(O)c(C=O)c3)CC2)cc1 ; what IC50 value has been reported?
stdout: 60 to 600 nM

stdin: Could you tell me which IC50 is on file for CN(Cc1ccc(-n2c(-c3cccnc3N)nc3ccc(-c4ccccc4)nc32)cc1)c1ccc(O)c(C=O)c1 ?
stdout: > 600 nM

stdin: Requested read-out: IC50. Entry: Nc1ncccc1-c1nc2ccc(N3CCOCC3)nc2n1-c1ccc(CN2CCN(C(=O)c3ccc(O)c(C=O)c3)CC2)cc1
stdout: > 600 nM

stdin: Given the molecule Nc1ncccc1-c1nc2ccc(-c3ccccc3)nc2n1-c1ccc(CN2CCCN(c3ccc(C=O)c(O)c3)CC2)cc1 , what is its reported IC50?
stdout: 15 to 60 nM

stdin: Fill blank: measured IC50 of the molecule Nc1ncccc1-c1nc2ccc(-c3ccccc3)nc2n1-c1ccc(CN2CCC(Oc3ccc(O)c(C=O)c3)CC2)cc1 is ____.
stdout: 60 to 600 nM

stdin: State the recorded IC50 for this entry: Nc1ncccc1-c1nc2ccc(-c3ccccc3)nc2n1-c1ccc(CN2CCC[C@@H](NC(=O)c3ccc(C=O)c(O)c3)C2)cc1
stdout: 60 to 600 nM

stdin: Quick one: IC50 of CN(c1ccc(C=O)c(O)c1)C1CCN(Cc2ccc(-n3c(-c4cccnc4N)nc4ccc(-c5ccccc5)nc43)cc2)CC1 ?
stdout: 60 to 600 nM

stdin: What value of IC50 has been reported for the following molecule? Nc1ncccc1-c1nc2ccc(C3=CCOCC3)nc2n1-c1ccc(CN2CCN(C(=O)c3ccc(O)c(C=O)c3)CC2)cc1
stdout: 60 to 600 nM

stdin: Recorded IC50 for Nc1ncccc1-c1nc2ccc(C3=CCCCC3)nc2n1-c1ccc(CN2CCN(C(=O)c3ccc(C=O)c(O)c3)CC2)cc1 , please?
stdout: > 600 nM

stdin: For Nc1ncccc1-c1nc2ccc(-c3ccccc3)nc2n1-c1ccc(CN2CCN(c3cc(O)c(C=O)c(F)c3)CC2)cc1 , what is its reported IC50?
stdout: 60 to 600 nM

stdin: Data request, read-out IC50, for Nc1ncccc1-c1nc2ccc(-c3ccccc3)nc2n1-c1ccc(CN2CCN(c3ccc(C=O)c(O)c3F)CC2)cc1
stdout: 15 to 60 nM

stdin: Please give the measured IC50 for this molecule: Nc1ncccc1-c1nc2ccc(-c3ccccc3)nc2n1-c1ccc(CN2CC3(CCN(c4ccc(C=O)c(O)c4)C3)C2)cc1
stdout: 15 to 60 nM

stdin: Requested read-out: IC50. Entry: Nc1ncccc1-c1nc2ccc(-c3ccc(Cl)cc3)nc2n1-c1ccc(CN2CCN(c3ccc(O)c(C=O)c3)CC2)cc1
stdout: > 600 nM

stdin: So what does the record say about IC50 for Nc1ncccc1-c1nc2ccc(-c3ccccc3)nc2n1-c1ccc(CN2CC[C@]3(CCN(C(=O)c4ccc(C=O)c(O)c4)C3)C2)cc1 ?
stdout: 60 to 600 nM

stdin: GET /values?readout=IC50&item= Nc1ncccc1-c1nc2ccc(-c3ccccc3)nc2n1-c1ccc(CN2CCC3(CCCN(C(=O)c4ccc(O)c(C=O)c4)C3)C2)cc1 (centres unmarked)
stdout: 60 to 600 nM

stdin: Please give the measured IC50 for this molecule: C[C@H]1CN(Cc2ccc(-n3c(-c4cccnc4N)nc4ccc(-c5ccccc5)nc43)cc2)CCN1c1ccc(C=O)c(O)c1
stdout: 60 to 600 nM

stdin: What does the record list as IC50 for Nc1ncccc1-c1nc2ccc(-c3ccccc3Cl)nc2n1-c1ccc(CN2CCN(c3ccc(C=O)c(O)c3)CC2)cc1 ?
stdout: 60 to 600 nM

stdin: Query: IC50; subject: Nc1ncccc1-c1nc2ccc(-c3ccc[nH]c3=O)nc2n1-c1ccc(CN2CCN(C(=O)c3ccc(O)c(C=O)c3)CC2)cc1
stdout: > 600 nM

Every entry's value here was drawn from patent US20260365647A1.
